Measured values drawn from the supplement of paper PMC12592484 for this set.

test system: CAF#5 (primary prostate cancer-associated fibroblasts of myCAF-like type); experiment: drug sensitivity score (DSS2, normalised partial AUC of dose-response, 72 h CellTiter-Glo viability) (DSS (dimensionless)); higher = more sensitive (stronger growth inhibition / cytotoxicity); extreme values may be limits of the assay

COMPOUND: CN(C)C[C@@H]1CCn2cc(c3ccccc32)C2=C(C(=O)NC2=O)c2cn(c3ccccc23)CCO1 [Ruboxistaurin] (tested concentration range 1-10000 nM)
drug sensitivity score: 6.8
//
COMPOUND: COc1cc2c(Oc3ccc(NC(=O)C4(C(=O)Nc5ccc(F)cc5)CC4)cc3F)ccnc2cc1OCCCN1CCOCC1 [Foretinib] (tested concentration range 0.1-1000 nM)
drug sensitivity score: 6.7
//
COMPOUND: CCN(CC)Cc1ccc2cc(COC(=O)Nc3ccc(C(=O)NO)cc3)ccc2c1 [Givinostat] (tested concentration range 0.1-1000 nM)
drug sensitivity score: 4.9
//
COMPOUND: CCOC(=O)C1=CCCC[C@H]1S(=O)(=O)Nc1ccc(F)cc1Cl [Resatorvid] (tested concentration range 1-10000 nM)
drug sensitivity score: 0
//
COMPOUND: OC[C@H]1O[C@@H](n2cnc3c2N=CNC[C@H]3O)C[C@@H]1O [Pentostatin] (tested concentration range 1-10000 nM)
drug sensitivity score: 0
//
COMPOUND: CNc1nc(-c2ccc3c(N)n[nH]c3c2)cc(N2C[C@@H](C(=O)NC3CCCCC3)CC[C@H]2C)n1 (tested concentration range 1-10000 nM)
drug sensitivity score: 5.8

###

test system: CAF#5; experiment: drug sensitivity score (DSS2, normalised partial AUC of dose-response, 72 h CellTiter-Glo viability) (DSS (dimensionless)); higher = more sensitive (stronger growth inhibition / cytotoxicity); extreme values may be limits of the assay
# drug sensitivity score per record follows
QUANTITY MEASURED: drug sensitivity score

COMPOUND: Cn1cc(-c2ccc(F)c(C(F)(F)F)c2)nc1C1CCN(c2ncnc3[nH]ncc23)CC1 (tested concentration range 1-10000 nM)
QUANTITY MEASURED: drug sensitivity score
READOUT NUMBER: 1.5
--
COMPOUND: CN(C)C(=O)c1cc2cnc(Nc3ccc(N4CCNCC4)cn3)nc2n1C1CCCC1 [Ribociclib] (tested concentration range 1-10000 nM)
QUANTITY MEASURED: drug sensitivity score
READOUT NUMBER: 2.5
--
COMPOUND: Cc1nc(NC(=O)N2CCC[C@H]2C(N)=O)sc1-c1ccnc(C(C)(C)C(F)(F)F)c1 [Alpelisib] (tested concentration range 0.2-2500 nM)
QUANTITY MEASURED: drug sensitivity score
READOUT NUMBER: 3.1
--
COMPOUND: COc1cc2nccc(Oc3ccc(NC(=O)C4(C(=O)Nc5ccc(F)cc5)CC4)cc3)c2cc1OC [Cabozantinib] (tested concentration range 0.1-1000 nM)
QUANTITY MEASURED: drug sensitivity score
READOUT NUMBER: 7.4
--
COMPOUND: CC[C@]12C=CCN3CC[C@@]4(c5cc([C@@]6(C(=O)OC)C[C@@H]7C[C@@H](C(C)(F)F)CN(Cc8c6[nH]c6ccccc86)C7)c(OC)cc5N(C)[C@H]4[C@@](O)(C(=O)OC)[C@@H]1OC(C)=O)[C@@H]32 [Vinflunine] (tested concentration range 0.1-1000 nM)
QUANTITY MEASURED: drug sensitivity score
READOUT NUMBER: 1.1
--
COMPOUND: Cc1ccc(C(=O)Nc2cccc(C(F)(F)F)c2)cc1Nc1nc(-c2cccnc2)nc2c1cnn2C [NVP-BHG712] (tested concentration range 1-10000 nM)
QUANTITY MEASURED: drug sensitivity score
READOUT NUMBER: 1
--
COMPOUND: O=C(c1cccc(Cl)c1F)N1CCN(Cc2cccc(Nc3nccs3)n2)CC1 [MK-8745] (tested concentration range 1-10000 nM)
QUANTITY MEASURED: drug sensitivity score
READOUT NUMBER: 2.8
--
COMPOUND: CCN1CCN(c2ccc(Nc3cc(N(C)C(=O)Nc4c(Cl)c(OC)cc(OC)c4Cl)ncn3)cc2)CC1 [Infigratinib] (tested concentration range 0.1-1000 nM)
QUANTITY MEASURED: drug sensitivity score
READOUT NUMBER: 0
--
COMPOUND: Cc1nc(=O)c2cc(CN(C)c3ccc(C(=O)N[C@@H](CCC(=O)O)C(=O)O)s3)ccc2[nH]1 [Raltitrexed] (tested concentration range 0.1-1000 nM)
QUANTITY MEASURED: drug sensitivity score
READOUT NUMBER: 2.8
--
COMPOUND: CNC(=O)c1cc(Oc2ccc(NC(=O)Nc3ccc(Cl)c(C(F)(F)F)c3)c(F)c2)ccn1 [Regorafenib] (tested concentration range 1-10000 nM)
QUANTITY MEASURED: drug sensitivity score
READOUT NUMBER: 3.2
--
COMPOUND: C[C@@]1(C(=O)Nc2ccc(F)nc2)CCCN1c1nc(Nc2cc(C3CC3)n[nH]2)c2cccn2n1 (tested concentration range 1-10000 nM)
QUANTITY MEASURED: drug sensitivity score
READOUT NUMBER: 10.7

###

# drug sensitivity score per record follows
system: CAF#4 (primary prostate cancer-associated fibroblasts of iCAF-like type); test: drug sensitivity score (DSS2, normalised partial AUC of dose-response, 72 h CellTiter-Glo viability) (DSS (dimensionless)); higher = more sensitive (stronger growth inhibition / cytotoxicity); extreme values may be limits of the assay
QUANTITY MEASURED: drug sensitivity score

COMPOUND: CC[C@@](C)(Nc1ccnc(-c2c[nH]c3ncccc23)n1)C(=O)NCC(F)(F)F [Decernotinib] (tested concentration range 1-10000 nM)
QUANTITY MEASURED: drug sensitivity score
RESULT: 0
--
COMPOUND: COc1cc2nccc(Oc3ccc(NC(=O)NC4CC4)c(Cl)c3)c2cc1C(N)=O [Lenvatinib] (tested concentration range 0.2-2500 nM)
QUANTITY MEASURED: drug sensitivity score
RESULT: 3
--
COMPOUND: CO[C@H]1C(=O)[C@]2(C)[C@@H](OC)C[C@H]3OC[C@@]3(OC(C)=O)[C@H]2[C@H](OC(=O)c2ccccc2)[C@]2(O)C[C@H](OC(=O)[C@H](O)[C@@H](NC(=O)OC(C)(C)C)c3ccccc3)C(C)=C1C2(C)C [Cabazitaxel] (tested concentration range 0.1-1000 nM)
QUANTITY MEASURED: drug sensitivity score
RESULT: 13
--
COMPOUND: Nc1ccn([C@@H]2O[C@H](CO)[C@@H](O)C2(F)F)c(=O)n1 [Gemcitabine] (tested concentration range 0.1-1000 nM)
QUANTITY MEASURED: drug sensitivity score
RESULT: 8
--
COMPOUND: CC(=O)N(O)CCCCCNC(=O)CCC(=O)N(O)CCCCCNC(=O)CCC(=O)N(O)CCCCCN [Deferoxamine] (tested concentration range 1-10000 nM)
QUANTITY MEASURED: drug sensitivity score
RESULT: 3.2
--
COMPOUND: Cc1ncc(Cl)cc1NCc1ccc(C(=O)N[C@@H](CC2CCCC2)C(=O)NC2CC2)s1 (tested concentration range 0.5-5000 nM)
QUANTITY MEASURED: drug sensitivity score
RESULT: 0.6
--
COMPOUND: CNC(=O)c1ccccc1Nc1cc(Nc2ccc(N3CCOCC3)cc2OC)ncc1C(F)(F)F [VS-4718] (tested concentration range 1-10000 nM)
QUANTITY MEASURED: drug sensitivity score
RESULT: 7.3
--
COMPOUND: O=C(O)CCCCC(CCSCc1ccccc1)SCc1ccccc1 (stereo not given) [Devimistat] (tested concentration range 1-10000 nM)
QUANTITY MEASURED: drug sensitivity score
RESULT: 0
--
COMPOUND: OC[C@H]1O[C@@H](n2cnc3c2N=CNC[C@H]3O)C[C@@H]1O [Pentostatin] (tested concentration range 1-10000 nM)
QUANTITY MEASURED: drug sensitivity score
RESULT: 0
--
COMPOUND: COc1cc(CCc2cc(NC(=O)c3ccc(N4CC(C)NC(C)C4)cc3)n[nH]2)cc(OC)c1 (stereo not given) [AZD4547] (tested concentration range 0.1-1000 nM)
QUANTITY MEASURED: drug sensitivity score
RESULT: 0.6
--
COMPOUND: Nc1cc(COc2c(Cl)cc(C[C@H](N)C(=O)O)cc2Cl)c2oc(-c3ccccc3)nc2c1 [JPH203] (tested concentration range 0.5-5000 nM)
QUANTITY MEASURED: drug sensitivity score
RESULT: 0
--
COMPOUND: CC(C)C[C@H](NC(=O)[C@H](CCc1ccccc1)NC(=O)CN1CCOCC1)C(=O)N[C@@H](Cc1ccccc1)C(=O)N[C@@H](CC(C)C)C(=O)[C@@]1(C)CO1 [Carfilzomib] (tested concentration range 0.1-1000 nM)
QUANTITY MEASURED: drug sensitivity score
RESULT: 13.3
--
COMPOUND: Cc1ccc(NC(=O)c2ccc(CN3CCN(C)CC3)cc2)cc1Nc1nc(-c2cccnc2)cs1 [Masitinib] (tested concentration range 1-10000 nM)
QUANTITY MEASURED: drug sensitivity score
RESULT: 7.6
--
COMPOUND: C[C@H]1Oc2cc(cnc2N)-c2c(nn(C)c2C#N)CN(C)C(=O)c2ccc(F)cc21 [Lorlatinib] (tested concentration range 0.1-1000 nM)
QUANTITY MEASURED: drug sensitivity score
RESULT: 2.5
--
COMPOUND: COc1cc2ncnc(Nc3ccc(F)c(Cl)c3)c2cc1OCCCN1CCOCC1 [Gefitinib] (tested concentration range 1-10000 nM)
QUANTITY MEASURED: drug sensitivity score
RESULT: 2.8
--
COMPOUND: CN(C)C1CCN(C(=O)c2ccc(NC(=O)Nc3ccc(-c4nc(N5CCOCC5)nc(N5CCOCC5)n4)cc3)cc2)CC1 [Gedatolisib] (tested concentration range 0.1-1000 nM)
QUANTITY MEASURED: drug sensitivity score
RESULT: 5.6
--
COMPOUND: CC(=O)O[C@@]12CO[C@@H]1C[C@H](O)[C@@]1(C)C(=O)[C@H](O)C3=C(C)[C@@H](OC(=O)[C@H](O)[C@@H](NC(=O)OC(C)(C)C)c4ccccc4)C[C@@](O)([C@@H](OC(=O)c4ccccc4)[C@H]21)C3(C)C [Docetaxel] (tested concentration range 0.1-1000 nM)
QUANTITY MEASURED: drug sensitivity score
RESULT: 14.2
--
COMPOUND: CO[C@H]1C[C@@H]2CC[C@@H](C)[C@@](O)(O2)C(=O)C(=O)N2CCCC[C@H]2C(=O)O[C@H]([C@H](C)C[C@@H]2CC[C@@H](OCCO)[C@H](OC)C2)CC(=O)[C@H](C)/C=C(\C)[C@@H](O)[C@@H](OC)C(=O)[C@H](C)C[C@H](C)/C=C/C=C/C=C/1C [Everolimus] (tested concentration range 0-100 nM)
QUANTITY MEASURED: drug sensitivity score
RESULT: 6.1
--
COMPOUND: Cc1cccc(-c2nn3c(c2-c2ccnc4ccc(C(N)=O)cc24)CCC3)n1 [Galunisertib] (tested concentration range 0.1-1000 nM)
QUANTITY MEASURED: drug sensitivity score
RESULT: 0
--
COMPOUND: Nc1nc(F)nc2c1ncn2[C@@H]1O[C@H](CO)[C@@H](O)[C@@H]1O [Fludarabine] (tested concentration range 1-10000 nM)
QUANTITY MEASURED: drug sensitivity score
RESULT: 0.3
